- study_target: purified catalytic domain of recombinant human TACE (rhTACEc) (Homo sapiens, UniProt P78536, N452Q/S266A)
- Construct: Residue 215 to 477 with two mutation (S266A and N452Q) and a 6×His tail; 6xHis (C); made in house; host or cells: baculovirus/Hi5 insect cells
- Sequence (P78536 215-477 S266A/N452Q): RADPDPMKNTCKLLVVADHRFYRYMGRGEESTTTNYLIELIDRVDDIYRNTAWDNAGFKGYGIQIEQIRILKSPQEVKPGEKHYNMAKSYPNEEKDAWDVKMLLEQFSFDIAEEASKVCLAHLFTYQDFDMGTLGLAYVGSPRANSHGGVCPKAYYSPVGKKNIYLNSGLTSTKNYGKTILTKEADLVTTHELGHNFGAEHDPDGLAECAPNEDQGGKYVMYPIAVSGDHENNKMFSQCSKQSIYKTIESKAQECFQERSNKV
- protocol: TACE kinetic assay: cleavage of internally quenched peptide substrate SPDL-3, fluorescence
- Format: biochemical
- protocol_conditions: TACE inhibitory activity, class symbols; read-out: Ki
pKi: −log10 of the molar value.
property_name: pKi

Some molecules with known pKi results, for comparison:
COc1cc2c(cc1OC)C(c1ccccc1)N(C(=O)[C@H](O)[C@@H](O)C(=O)N[C@H](C)c1ccc(-n3cccn3)cc1)CC2 (stereo partly shown) [Compound 2442] | > 7.70
O=C(NCC1CCN(c2ccccc2OC(F)(F)F)CC1)[C@H](O)[C@@H](O)C(=O)N1Cc2ccncc2C1 [Compound 2040] | > 7.70
Cn1c([C@H](O)[C@@H](O)C(=O)NCC2CCN(c3ccc(F)cc3C#N)CC2)nc2ccccc21 [Compound 2394] | < 6.00
CC(c1cccc(Cl)c1)N(C)C(=O)[C@H](O)[C@@H](O)C(=O)N[C@H](C)c1ccc(-n2cccn2)cc1 (stereo partly shown) [Compound 2480] | 7.00 to 7.70
C[C@@H]1CN(c2ccccc2C#N)CCC1CNC(=O)[C@H](O)[C@@H](O)C(=O)N1Cc2ccccc2C1 (stereo partly shown) [Compound 2143] | > 7.70

Could you report pKi for every entry in the following list?
1. N#Cc1cc(F)ccc1N1[C@@H]2CC[C@H]1CC(CNC(=O)[C@H](O)[C@@H](O)C(=O)N1CCC[C@@H]1c1ccccc1)C2 (stereo partly shown) [Compound 2148]
2. O=C(NCc1ccc(-c2ccccc2OCCC2CCCCC2)cc1)[C@H](O)[C@@H](O)C(=O)N1CCCC1 [Compound 2338]
3. CNc1nc([C@H]2CCCN2C(=O)[C@H](O)[C@@H](O)C(=O)N[C@H](C)c2ccc(-n3cccn3)cc2)c(C#N)s1 [Compound 2269]
4. CNc1nc([C@H]2CCCN2C(=O)[C@H](O)[C@@H](O)C(=O)N[C@H](C)c2ccc(-n3cccn3)cc2)c(C)s1 [Compound 2268]
5. O=C(NCc1ccc(-c2ccccc2OC(F)(F)F)cn1)[C@H](O)[C@@H](O)c1ccccn1 [Compound 2398]

1. 6.00 to 7.00
2. > 7.70
3. > 7.70
4. > 7.70
5. < 6.00

---

- study_target: purified catalytic domain of recombinant human TACE (rhTACEc) (Homo sapiens, UniProt P78536, N452Q/S266A)
- Construct: Residue 215 to 477 with two mutation (S266A and N452Q) and a 6×His tail; 6xHis (C); made in house; host or cells: baculovirus/Hi5 insect cells
- protocol: TACE kinetic assay: cleavage of internally quenched peptide substrate SPDL-3, fluorescence
- Format: biochemical
- protocol_conditions: TACE inhibitory activity, class symbols; read-out: Ki
pKi: −log10 of the molar value.
property_name: pKi

Could you report pKi for every entry in the following list?
1. Cn1cnnc1[C@H](O)[C@@H](O)C(=O)NCC1CCN(c2ccc(F)cc2C#N)CC1
2. C[C@@H](NC(=O)[C@H](O)[C@@H](O)C(=O)N1Cc2cnc(N)nc2C1)c1ccc(-n2cccn2)cc1
3. CCOc1cc(F)ccc1-c1ccc(CNC(=O)[C@H](OC)[C@@H](O)C(=O)N2Cc3cccnc3C2)cc1
4. C[C@@H](NC(=O)[C@H](O)[C@@H](O)C(=O)N1CCCC1(C)c1csc(N)n1)c1ccc(-n2cccn2)cc1 (stereo partly shown)
5. C[C@@H](NC(=O)[C@H](O)[C@@H](O)C(=O)N1CCn2cnnc2C1)c1ccc(-n2cccn2)cc1
6. C[C@@H](NC(=O)[C@H](O)[C@@H](O)C(=O)N1CC[C@H](O)[C@H]1c1cccc(Cl)c1)c1ccc(-n2cccn2)cc1
7. O=C(NCC1CCN(c2ccccc2OC(F)(F)F)CC1)[C@H](O)[C@@H](O)C(=O)N1Cc2cccnc2C1

["< 6.00", "> 7.70", "6.00 to 7.00", "> 7.70", "6.00 to 7.00", "> 7.70", "> 7.70"]
